Test: Therapeutic index, ratio of TD50 for MDCK cells to ED50 for influenza A virus (A/swine/OH/511445/2007(H1N1)) Oh7
Assay type: cell-based
Details: dog, read-out: Ratio TD50/ED50
Decision: selectivity ratio >= 6 yields met, all other cases yield not met.

Item Nc1ccc(C(=O)Oc2c(-c3ccc(O)c(O)c3)oc3cc(O)cc(O)c3c2=O)cc1O with selectivity ratio of 6 or above?
not met

Item O=C(Oc1c(-c2ccc(O)c(O)c2)oc2cc(O)cc(O)c2c1=O)c1cc(O)ccc1O with selectivity ratio of 6 or above?
not met

Item O=c1c(O[C@@H]2O[C@H](CO)[C@@H](O)[C@H](O)[C@H]2O)c(-c2ccc(O)c(O)c2)oc2cc(O)cc(O)c12 with selectivity ratio of 6 or above?
met

Item Nc1cc(C(=O)Oc2c(-c3ccc(O)c(O)c3)oc3cc(O)cc(O)c3c2=O)ccc1O with selectivity ratio of 6 or above?
not met

Item O=C(O[C@@H]1Cc2c(O)cc(O)cc2O[C@@H]1c1cc(O)c(O)c(O)c1)c1cc(O)c(O)c(O)c1 [EPIGALOCATECHIN GALLATE] with selectivity ratio of 6 or above?
not met

Item O=C(Oc1c(-c2ccc(O)c(O)c2)oc2cc(O)cc(O)c2c1=O)c1cc(O)c(O)c(O)c1 with selectivity ratio of 6 or above?
met

Item O=c1c(O)c(-c2ccc(O)c(O)c2)oc2cc(O)cc(O)c12 with selectivity ratio of 6 or above?
not met

###

Test: Cytotoxicity against MDCK cells after 4 days
Assay type: cell-based, Canis lupus familiaris
Settings: dog, read-out: TD50
Provide the recorded CC50 at 96 h for the entries that follow.
# value in µM; strip the unit string

I would be grateful if you could share the reported CC50 at 96 h for O=c1c(O)c(-c2ccc(O)c(O)c2)oc2cc(O)cc(O)c12 [QUERCETIN] .
83.4

I would be grateful if you could share the reported CC50 at 96 h for O=c1c(O[C@@H]2O[C@H](CO)[C@@H](O)[C@H](O)[C@H]2O)c(-c2ccc(O)c(O)c2)oc2cc(O)cc(O)c12 [ISOQUERCETIN] .
45.1

I would be grateful if you could share the reported CC50 at 96 h for O=C(Oc1c(-c2ccc(O)c(O)c2)oc2cc(O)cc(O)c2c1=O)c1cc(O)ccc1O .
45.2

I would be grateful if you could share the reported CC50 at 96 h for O=C(Oc1c(-c2ccc(O)c(O)c2)oc2cc(O)cc(O)c2c1=O)c1cc(O)c(O)c(O)c1 .
90.2

I would be grateful if you could share the reported CC50 at 96 h for Nc1ccc(C(=O)Oc2c(-c3ccc(O)c(O)c3)oc3cc(O)cc(O)c3c2=O)cc1O .
54.8

I would be grateful if you could share the reported CC50 at 96 h for O=C(O[C@@H]1Cc2c(O)cc(O)cc2O[C@@H]1c1cc(O)c(O)c(O)c1)c1cc(O)c(O)c(O)c1 [EPIGALOCATECHIN GALLATE] .
45.5

I would be grateful if you could share the reported CC50 at 96 h for Nc1cc(C(=O)Oc2c(-c3ccc(O)c(O)c3)oc3cc(O)cc(O)c3c2=O)ccc1O .
60.1
